Lab note: Ki readings collected with Cathepsin B (Homo sapiens) for the following compounds.
Numbers only, in µM.

substance_smiles=CC(=O)/C=C/[C@H](C[C@@H]1CCNC1=O)NC(=O)[C@H](CC(C)C)NC(=O)c1ccc(F)cc1 reading=10.9

Now consider the entry below.
Prompt line: Please provide the recorded Ki for `CC(=O)/C=C/[C@H](C[C@@H]1CCNC1=O)NC(=O)[C@H](CC(C)(C)C)NC(=O)c1ccc(F)cc1` , tested on Cathepsin B (Homo sapiens).
Response line: 7.7

###

I'd be grateful if you could share measured Ki for these entries.
# assay_protocol: Binding affinity to N-terminal sumo/his-6 tagged SARS CoV-2 MPro (3264 to 3569 residues) extracted from Escherichia coli BL21 Gold (DE3) cells assessed as inhibition constant using Dabcyl-KTSAVLQSGFRKMEE-dans as substrate incubated for 10 mins by FRET assay
# Set-up: species or system Severe acute respiratory syndrome coronavirus 2
Numbers only, in µM.

Would you be so kind as to report Ki for each listed record?
1. CC(=O)/C=C/[C@H](C[C@@H]1CCNC1=O)NC(=O)[C@H](CC(C)C)NC(=O)c1ccc(F)cc1
2. CCOC(=O)/C=C/[C@H](C[C@@H]1CCNC1=O)NC(=O)[C@H](Cc1ccccc1)NC(=O)[C@@H](Cc1ccc(F)cc1)NC(=O)OC(C)(C)C

Response line:
1: 5.58; 2: 1.8

###

I'd be grateful if you could share measured Activity for these entries.
# target_of_assay: Procathepsin L (Homo sapiens, UniProt P07711)
# Sequence (P07711 114-333 limits assumed): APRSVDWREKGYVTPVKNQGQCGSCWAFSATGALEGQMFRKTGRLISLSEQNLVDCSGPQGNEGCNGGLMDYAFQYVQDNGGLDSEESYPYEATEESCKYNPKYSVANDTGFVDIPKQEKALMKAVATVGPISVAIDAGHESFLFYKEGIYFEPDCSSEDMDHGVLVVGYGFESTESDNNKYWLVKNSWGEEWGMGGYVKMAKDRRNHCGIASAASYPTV
# assay_protocol: Inhibition of human Cathepsin L assessed as residual activity using Cbz-FR-AMC as substrate at 1 uM preincubated for 20 mins at room temperature followed by substrate addition and measured after 10 mins by FRET assay
# test_parameters: time 30.0 min
One number for each entry, in %.

# count of solved cases: 5
substance_smiles=CC(=O)/C=C/[C@H](C[C@@H]1CCNC1=O)NC(=O)[C@H](CC1CCCCC1)NC(=O)c1ccccc1F measured_endpoint=Activity reading=3.4
substance_smiles=CCC[C@H](NC(=O)c1ccc(F)cc1)C(=O)N[C@H](/C=C/C(C)=O)C[C@@H]1CCNC1=O measured_endpoint=Activity reading=19.1
substance_smiles=CCC[C@H](NC(=O)c1ccccc1F)C(=O)N[C@H](/C=C/C(C)=O)C[C@@H]1CCNC1=O measured_endpoint=Activity reading=12
substance_smiles=CC(=O)/C=C/[C@H](C[C@@H]1CCNC1=O)NC(=O)[C@H](CC1CCCCC1)NC(=O)c1ccc(F)cc1 measured_endpoint=Activity reading=5
substance_smiles=CC(=O)/C=C/[C@H](C[C@@H]1CCNC1=O)NC(=O)[C@H](CC1CC1)NC(=O)c1ccc(F)cc1 measured_endpoint=Activity reading=26.8

Would you be so kind as to report Activity for each listed record?
1. CCC[C@H](NC(=O)c1cccc(F)c1)C(=O)N[C@H](/C=C/C(C)=O)C[C@@H]1CCNC1=O
2. CC(=O)/C=C/[C@H](C[C@@H]1CCNC1=O)NC(=O)[C@H](CC(C)C)NC(=O)c1ccccc1F
3. CC(=O)/C=C/[C@H](C[C@@H]1CCNC1=O)NC(=O)[C@H](CC1CC1)NC(=O)c1cccc(F)c1
4. CC(=O)/C=C/[C@H](C[C@@H]1CCNC1=O)NC(=O)[C@H](CC1CC1)NC(=O)c1ccccc1F
5. CCCC[C@H](NC(=O)c1cccc(F)c1)C(=O)N[C@H](/C=C/C(C)=O)C[C@@H]1CCNC1=O
6. CC(=O)/C=C/[C@H](C[C@@H]1CCNC1=O)NC(=O)[C@H](CC(C)C)NC(=O)c1cccc(F)c1
7. CC(=O)/C=C/[C@H](C[C@@H]1CCNC1=O)NC(=O)[C@H](CC(C)(C)C)NC(=O)c1cccc(F)c1

Response line:
1: 8.61; 2: 5.3; 3: 9.76; 4: 23.2; 5: 6.81; 6: 10.9; 7: 34.7
